# Test system: Blood cancer cells RS4; 11
# Test: CellTiter Glo test: growth inhibition of cells
# Type: cell-based
# Condition set: Homo sapiens, 11 cells, 72 h, cell viability
Reported property: IC50

Return value of IC50 for input O=C1N/C(=C\c2c[nH]c3c(F)c(Cl)ccc23)C(=O)N1C(CO)c1ccc(F)cc1 (stereo not drawn) [Compound 84] , no commentary.
≤ 1 µM

Return value of IC50 for input O=C1N/C(=C\c2c[nH]c3c(F)c(Cl)ccc23)C(=O)N1C(CO)c1c(F)cc(Cl)cc1F (stereo not drawn) [Compound 103] , no commentary.
1 to 10 µM

Return value of IC50 for input N#Cc1ccc(CN2C(=O)N/C(=C\c3c[nH]c4c(F)c(Cl)ccc34)C2=O)c(F)c1F [Compound 34] , no commentary.
≤ 1 µM

Return value of IC50 for input Cc1c(Cl)ccc2c(/C=C3\NC(=O)N(C(C(=O)NC(CO)(CO)CO)c4ccc(F)c(F)c4)C3=O)c[nH]c12 (stereo not drawn) [Compound 30] , no commentary.
≤ 1 µM

Return value of IC50 for input N#Cc1ccc(C(C(=O)NC(CO)CO)N2C(=O)N/C(=C\c3c[nH]c4c(F)c(Cl)ccc34)C2=O)cc1 (stereo not drawn) [Compound 29] , no commentary.
1 to 10 µM

Return value of IC50 for input O=C1N/C(=C\c2c[nH]c3c(F)c(Cl)ccc23)C(=O)N1Cc1ccc(Cl)c(F)c1F [Compound 104] , no commentary.
≤ 1 µM

Return value of IC50 for input N#Cc1ccc(CN2C(=O)N/C(=C\c3c[nH]c4c(OCF)c(Cl)ccc34)C2=O)cc1 [Compound 13] , no commentary.
> 10 µM

Return value of IC50 for input O=C1N/C(=C\c2c[nH]c3c(F)c(Cl)ccc23)C(=O)N1C(CO)c1ccc(Cl)cc1F (stereo not drawn) [Compound 99] , no commentary.
≤ 1 µM

Return value of IC50 for input O=C1N/C(=C\c2c[nH]c3cc(Br)ccc23)C(=O)N1Cc1ccc(Cl)cc1 [Compound 5] , no commentary.
1 to 10 µM

###

# Test system: Blood cancer cells RS4; 11
# Test: CellTiter Glo test: growth inhibition of cells
# Assay type: cell-based
# Condition set: Homo sapiens, 11 cells, 72 h, cell viability
Reported property: IC50

Some solved cases for reference:
[
  {
    "Compound": "CSc1c(Cl)ccc2c(/C=C3\\NC(=O)N(Cc4ccc(F)c(F)c4)C3=O)c[nH]c12",
    "IC50": "> 10000 nM"
  },
  {
    "Compound": "O=C1N/C(=C\\c2c[nH]c3c(F)c(Cl)ccc23)C(=O)N1C(CO)c1cc(F)c(Cl)c(F)c1 (stereo not drawn)",
    "IC50": "≤ 1000 nM"
  },
  {
    "Compound": "N#Cc1ccc(C(CO)N2C(=O)N/C(=C\\c3c[nH]c4cc(Cl)ccc34)C2=O)cc1 (stereo not drawn)",
    "IC50": "≤ 1000 nM"
  }
]

Return value of IC50 for input O=C1N/C(=C\c2c[nH]c3c(F)c(Cl)ccc23)C(=O)N1C(CO)c1ccc(F)c(F)c1 (stereo not drawn) , no commentary.
≤ 1000 nM

Return value of IC50 for input Cc1c(Cl)ccc2c(/C=C3\NC(=O)N(Cc4ccc(C#N)cc4)C3=O)c[nH]c12 , no commentary.
≤ 1000 nM

Return value of IC50 for input N#Cc1ccc(C(C(=O)NCCO)N2C(=O)N/C(=C\c3c[nH]c4c(F)c(Cl)ccc34)C2=O)cc1 (stereo not drawn) , no commentary.
≤ 1000 nM
